Origin of measurements: patent US20240336591A1

# SYSTEM: Human PDE10A2 (Homo sapiens (Human))
# PROCEDURE_TEXT: Cell based human PDE10A activity assay - cAMP HTRF assay in HEK 293 rhPDE10A2 cell line
READOUT_NAME: IC50
Put down the number, then write its unit next to it.

Consider the reported IC50 for these compounds:
Cn1cc(-c2ccncc2)c(-c2ccc(OCc3nc4ccccc4nc3N3CC(N)C3)cc2)n1 ... 7.59 nM
Cn1cc(-c2ccncc2)c(-c2ccc(OCc3nc4ccccn4c3C(=O)N=S(C)(C)=O)cc2)n1 ... 6.76 nM
CN(C(=O)c1cc2ccccc2nc1COc1ccc(-c2nn(C)cc2-c2ccncc2)cc1)S(C)(=O)=O ... 10.7 nM
Cn1cc(-c2ccncc2)c(-c2ccc(OCc3nc4ccccc4cc3C(=O)O)cc2)n1 ... 2.75 nM
Cn1cc(-c2ccncc2)c(-c2ccc(OCc3cc(C(=O)N=S(C)(C)=O)c4ccccc4n3)cc2)n1 ... 1 nM
Cn1cc(-c2ccncc2)c(-c2ccc(OCc3cc(C(=O)O)c4ccccc4n3)cc2)n1 ... 0.813 nM
Cn1cc(-c2ccncc2)c(-c2ccc(OCc3nc4ccccc4nc3C(=O)N=S(C)(C)=O)cc2)n1 ... 102 nM

Please provide the recorded IC50 for Cn1cc(-c2ccncc2)c(-c2ccc(OCc3nc4ccccc4cc3C(=O)NS(C)(=O)=O)cc2)n1 , tested on Human PDE10A2 (Homo sapiens (Human)).
1.66 nM

###

# SYSTEM: Human PDE10A2 (Homo sapiens (Human), UniProt Q9Y233)
# Sequence (Q9Y233 267-1055): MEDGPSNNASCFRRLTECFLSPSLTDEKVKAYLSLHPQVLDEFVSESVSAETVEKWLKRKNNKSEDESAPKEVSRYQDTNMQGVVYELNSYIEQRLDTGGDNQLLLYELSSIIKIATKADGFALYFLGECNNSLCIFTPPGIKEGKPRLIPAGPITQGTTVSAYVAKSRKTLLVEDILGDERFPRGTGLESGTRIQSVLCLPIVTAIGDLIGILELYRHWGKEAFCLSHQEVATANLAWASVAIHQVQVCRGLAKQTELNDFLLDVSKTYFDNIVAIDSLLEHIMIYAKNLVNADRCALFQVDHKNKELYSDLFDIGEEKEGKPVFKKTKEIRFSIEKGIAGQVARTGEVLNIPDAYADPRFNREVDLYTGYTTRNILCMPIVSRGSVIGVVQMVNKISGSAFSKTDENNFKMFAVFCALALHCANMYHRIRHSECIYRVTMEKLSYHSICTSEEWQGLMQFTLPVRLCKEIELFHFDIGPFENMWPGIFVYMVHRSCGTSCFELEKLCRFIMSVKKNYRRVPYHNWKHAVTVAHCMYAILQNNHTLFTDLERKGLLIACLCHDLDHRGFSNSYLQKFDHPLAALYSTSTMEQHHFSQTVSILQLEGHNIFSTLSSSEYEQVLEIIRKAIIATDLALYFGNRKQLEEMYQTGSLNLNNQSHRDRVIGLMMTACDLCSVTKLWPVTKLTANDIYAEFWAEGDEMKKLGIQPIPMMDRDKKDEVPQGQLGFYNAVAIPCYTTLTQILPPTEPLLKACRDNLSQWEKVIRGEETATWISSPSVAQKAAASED
# PROCEDURE_TEXT: Biochemical human PDE10A activity assay - PDE10A2 Phosphate Sensor Assay
# EXPERIMENTAL_CONDITIONS: cGMP 3 μM substrate, PDE10A2 0.25 nM
READOUT_NAME: PDE10A2 Phosphate Sensor Enzyme Assay (pIC50)
Would you mind answering with just the numeric figure?

These solved cases illustrate the format of a correct answer.
Cn1cc(-c2ccncc2)c(-c2ccc(OCc3nc4ccccc4cc3C(=O)O)cc2)n1 [Example 3] ... 10.1
Cn1cc(-c2ccncc2)c(-c2ccc(OCc3nc4cc(F)ccc4cc3C(=O)N=S(C)(C)=O)cc2)n1 [Example 21] ... 8.32

Now consider a different compound.
Kindly state the measured PDE10A2 Phosphate Sensor Enzyme Assay (pIC50) obtained for CS(C)(=O)=NC(=O)c1cc(COc2ccc(-c3nn(C4CC4)cc3-c3ccncc3)cc2)nc2ccccc12 [Example 28] with Human PDE10A2 (Homo sapiens (Human), UniProt Q9Y233).
9.42

###

# SYSTEM: Human PDE10A2 (Homo sapiens (Human), UniProt Q9Y233)
# PROCEDURE_TEXT: Cell based human PDE10A activity assay - cAMP HTRF assay in HEK 293 rhPDE10A2 cell line
# EXPERIMENTAL_CONDITIONS: Forskolin 10 μM; read-out: cAMP HTRF Assay in HEK 293 rhPDE10A2 cell line (pIC50) (converted)
# Method: Semi log compound dilutions starting at a final concentration of 10 μM were dispensed into a white 384 well plate, alongside DMSO and an Inhibited control using the Tecan D300e digital dispenser. HEK 293 cells overexpressing recombinant human PDE10A2 were seeded on top of the compounds at 2500 cells/well in a volume 5 μL/well. The plate was incubated at room temperature for 60 minutes. […] Data was analysed using a 4-parameter fit.
READOUT_NAME: IC50 (nM)
API: value field is a number in nM; no unit string.

Worked set:
Cn1cc(-c2ccncc2)c(-c2ccc(OCc3nc(N4CC(N)C4)c4ccccc4n3)cc2)n1 ... 24.5
CN(C(=O)c1cc(COc2ccc(-c3nn(C)cc3-c3ccncc3)cc2)nc2ccccc12)S(C)(=O)=O ... 0.603
Cn1cc(-c2ccncc2)c(-c2ccc(OCc3nc(N4CCNC(=O)C4)c4ccccc4n3)cc2)n1 ... 0.269
CCn1cc(-c2ccncc2)c(-c2ccc(OCc3cc(C(=O)N=S(C)(C)=O)c4ccccc4n3)cc2)n1 ... 0.537
Cc1ccc2nc(COc3ccc(-c4nn(C)cc4-c4ccncc4)cc3)c(C(=O)N=S(C)(C)=O)cc2c1 ... 331
CS(C)(=O)=NC(=O)c1cc(COc2ccc(-c3nn(C4CC4)cc3-c3ccncc3)cc2)nc2ccccc12 ... 2.75
Cn1cc(-c2ccncc2)c(-c2ccc(OCc3cc(C(=O)N=S(C)(C)=O)c4c(Cl)cccc4n3)cc2)n1 ... 42.7
Cn1cc(-c2ccncc2)c(-c2ccc(OCc3nc4cccc(F)c4cc3C(=O)N=S(C)(C)=O)cc2)n1 ... 3.98
CS(C)(=O)=NC(=O)c1cc(COc2ccc(-c3n[nH]cc3-c3ccncc3)cc2)nc2ccccc12 ... 5.01
Cn1ncc(-c2ccncc2)c1-c1ccc(OCc2cc(C(=O)O)c3ccccc3n2)cc1 ... 1.95

# input for lookup
# get_value(readout= IC50, system= Human PDE10A2 (Homo sapiens (Human), UniProt Q9Y233)) for Cn1cc(-c2ccncc2)c(-c2ccc(OCc3nc(N4CCS(=O)(=O)CC4)c4ccccc4n3)cc2)n1
1.48
